assay: Selectivity ratio of IC50 for MMP3 to IC50 for MMP13
resultType: Ratio IC50

| givenSmiles | Ratio IC50 |
| --- | --- |
| CNC(=O)[C@H](NC(=O)c1ccc(-c2cccc(CNC(=O)c3cccc(C)n3)c2)o1)C1CCCCC1 | 240 |

P. CNC(=O)[C@@H](NC(=O)c1ccc(-c2cccc(CNC(=O)c3ccnc(C(F)(F)F)n3)c2)o1)C(C)C
Q. CNC(=O)[C@H](NC(=O)c1ccc(-c2cccc(CNC(=O)c3cc(C)n(C)n3)c2)o1)C1CCCCC1
Of P and Q , which carries the smaller reported Ratio IC50 figure? Refer to your chosen item by its label in the answer.
Q
